Target: human ATX (Homo sapiens (Human))
Experiment: Human ATX enzyme inhibition assay (fluorescence quenching, MR121 substrate)
Type: biochemical
Settings: human His-tagged ATX 30 nM, MR121 substrate 1 μM, 30° C.; read-out: ATX IC50
pIC50: −log10 of the molar value.
ASSAY METRIC: pIC50

Use these answered entries as a reference point.
CHEMICAL STRING	ASSAY METRIC	TEST VALUE
CC(C)(C)C(=O)Nc1cc(C(F)(F)F)cnc1COC(=O)N1CC2=C(C1)CN(C(=O)c1cc(F)c(S(N)(=O)=O)cc1F)C2	pIC50	8.00
CC(C)(C)C(=O)Nc1cc(C#N)cnc1COC(=O)N1CC2=C(C1)CN(C(=O)c1cc(F)c(S(N)(=O)=O)cc1F)C2	pIC50	8.10
NS(=O)(=O)c1ccc(C(=O)N2CC3=C(CN(C(=O)c4cc(OCC5CCOCC5)nc(C5CC5)c4)C3)C2)nc1	pIC50	7.92
CC(C)(C)C(=O)Nc1ccc(Cl)nc1COC(=O)N1CC2=C(C1)CN(C(=O)c1c(F)cc(S(N)(=O)=O)cc1F)C2	pIC50	8.00
CC(C)(C)C(=O)Nc1cc(C(F)(F)F)cnc1COC(=O)N1CC2=C(C1)CN(S(=O)(=O)c1ccc(S(N)(=O)=O)cc1F)C2	pIC50	8.15

1 = CC(C)(C)C(=O)Nc1cc(C(F)(F)F)cnc1COC(=O)N1CC2=C(C1)CN(C(=O)c1c(F)cc(S(N)(=O)=O)cc1F)C2
2 = CC(C)(C)C(=O)Nc1cc(C(F)(F)F)cnc1COC(=O)N1CC2=C(C1)CN(C(=O)c1ccc(S(N)(=O)=O)c(F)c1F)C2
3 = CC(C)(C)C(=O)Nc1ccc(Cl)nc1COC(=O)N1CC2=C(C1)CN(C(=O)c1ccc(S(N)(=O)=O)cc1F)C2
Number of compounds to sort: 3. Sort criterion: pIC50, ascending. Present the labels in the sequence the task asks for. 2, 1, 3

----------
Target: Human carbonic anhydrase II (hCA-II) (Homo sapiens (Human), UniProt P00918)
Experiment: Human carbonic anhydrase-II inhibition assay (absorbance, 4-nitrophenyl acetate substrate)
Format: biochemical
pIC50: −log10 of the molar value.
ASSAY METRIC: pIC50

COMPOUND	ASSAYED TARGET	TEST VALUE
Cc1nnn(Cc2cc(Cl)ccc2CCC(=O)N2CC3=C(C2)CN(C(=O)c2ccc(S(N)(=O)=O)cc2F)C3)n1 [Example 3.07]	Human carbonic anhydrase II (hCA-II) (Homo sapiens (Human), UniProt P00918)	8.30
Cc1nnn(Cc2cc(C(F)(F)F)cnc2CCC(=O)N2CC3=C(C2)CN(C(=O)c2ccc(S(N)(=O)=O)cc2F)C3)n1 [Example 3.10]	Human carbonic anhydrase II (hCA-II) (Homo sapiens (Human), UniProt P00918)	8.30
NS(=O)(=O)c1ccc(C(=O)N2CC3=C(CN(C(=O)CCc4ccc(OC(F)(F)F)cc4)C3)C2)c(F)c1 [Example 3.02]	Human carbonic anhydrase II (hCA-II) (Homo sapiens (Human), UniProt P00918)	8.30

// data source = patent US10647719B2
